Taken from the Human Domainome abundance scans (Beltran et al. 2025).

B1: Histidine--tRNA ligase, cytoplasmic, residues 8 to 45; numbered along this chain, P12081 (parent)
chain: EELVKLQGERVRGLKQQKASAELIEEEVAKLLKLKAQL

Variants of: B1
Test: abundance fitness (aPCA) (normalised: wild type 0, dead -1); higher = more abundant; growth selection in yeast, the domain comes from the species named
Conditions: Homo sapiens
Values of abundance fitness greater than or equal to -0.03 map to class 1; values below map to class 0.

In [3]: df
Out[3]:
    mutation_notation  label_class
 0               Q16Y      class 0
 1               V28R      class 1
 2               K35A      class 1
 3                G8Y      class 0
 4               K18G      class 1
 5               K35I      class 0
 6               L38H      class 1
 7               S20L      class 0
 8                K5Y      class 0
 9                E2Y      class 0
10               L31G      class 0
11               Q17M      class 1
12               I24S      class 0
13               E26Q      class 1
14                E9L      class 0
15               A21Y      class 0
16               K30Y      class 0
17               L31P      class 1
18               K35H      class 0
19                E2V      class 0
20               L14M      class 1
21                K5R      class 0
